The origin of these recorded values is ChEMBL document CHEMBL1157649.

Kindly state CC50 for each of the entries shown.
Assay: Cytotoxicity against human HPLF cells after 24 hrs
Assay type: cell-based
Conditions: hplf, 24 h
Give just the number in µM; leave the unit off.

Query string: Look at this molecule and give its reported CC50. "O=C1/C(=C/c2ccc(F)cc2)CCC/C1=C\c1cccc([N+](=O)[O-])c1"
Result string: 36

Query string: Which CC50 value belongs to "O=C1/C(=C/c2ccccc2)CCC/C1=C\c1ccc([N+](=O)[O-])cc1" ?
Result string: 282

====

Assay: Partition coefficient, log P of the compound
Format: physicochemical
Settings: octanol/water
So basically: is logP under 5? Then satisfied. Not under? Then not satisfied.

Query string: Is logP strictly under 5 for the entry "O=C1/C(=C/c2ccc(Cl)cc2)CCC/C1=C\c1cccc([N+](=O)[O-])c1" ?
Result string: not satisfied

Query string: Record "O=C1/C(=C/c2ccc(Cl)cc2)CCC/C1=C\c1ccccc1[N+](=O)[O-]" : is its logP strictly below 5?
Result string: not satisfied

Query string: Consider the molecule "Cc1ccc(/C=C2\CCC/C(=C\c3cccc([N+](=O)[O-])c3)C2=O)cc1" . Is its logP strictly less than 5?
Result string: not satisfied

Query string: Find out if reported logP for "O=C1/C(=C/c2ccc(Cl)cc2)CCC/C1=C\c1ccc([N+](=O)[O-])cc1" is less than 5
Result string: not satisfied

Query string: Here's an entry: "COc1cc(/C=C2\CCC/C(=C\c3ccccc3[N+](=O)[O-])C2=O)cc(OC)c1OC" . Is its logP below 5?
Result string: satisfied

Query string: State whether 5 exceeds logP recorded for "CN(C)c1ccc(/C=C2\CCC/C(=C\c3ccccc3[N+](=O)[O-])C2=O)cc1" .
Result string: satisfied

Query string: Item "COc1cc(/C=C2\CCC/C(=C\c3cccc([N+](=O)[O-])c3)C2=O)cc(OC)c1OC" : logP beneath 5, strictly?
Result string: satisfied

====

System: HSC-4
Assay: Cytotoxicity against human HSC4 cells after 24 hrs
Format: functional
Details: HSC-4, 24 h
measure: CC50 (µM)
State the answer as a number, implicitly in µM.

Query string: If you can, please state the reported CC50 value of "O=C1CCCC/C1=C\c1cccc([N+](=O)[O-])c1" .
Result string: 18

Query string: Reported CC50, compound "COc1ccc(/C=C2\CCC/C(=C\c3cccc([N+](=O)[O-])c3)C2=O)cc1" : ____
Result string: 11

Query string: Requested read-out: CC50. Entry: "O=C1/C(=C/c2ccc(Cl)cc2)CCC/C1=C\c1ccccc1[N+](=O)[O-]"
Result string: 6.1

====

I'd appreciate it if you could supply CC50 values for the items below.
Assay: Cytotoxicity against human HPC cells after 24 hrs
Format: cell-based
Settings: hpc, 24 h

Query string: What does the data say about its CC50? Entry: "COc1ccc(/C=C2\CCC/C(=C\c3cccc([N+](=O)[O-])c3)C2=O)cc1"
Result string: 33 µM

Query string: // CC50 lookup, key: "O=C1/C(=C/c2ccccc2)CCC/C1=C\c1ccc([N+](=O)[O-])cc1"
Result string: 123 µM

Query string: # get_value(readout='CC50', item= "O=C1/C(=C/c2ccc(Cl)cc2)CCC/C1=C\c1ccccc1[N+](=O)[O-]" )
Result string: 400 µM

Query string: Consider the compound "CN(C)c1ccc(/C=C2\CCC/C(=C\c3ccccc3[N+](=O)[O-])C2=O)cc1" and give its measured CC50.
Result string: > 400 µM

Query string: Item "COc1ccc(/C=C2\CCC/C(=C\c3ccc([N+](=O)[O-])cc3)C2=O)c(OC)c1OC" has what recorded CC50?
Result string: > 400 µM

Query string: Which CC50 reading was recorded for the compound "CN(C)c1ccc(/C=C2\CCC/C(=C\c3cccc([N+](=O)[O-])c3)C2=O)cc1" ?
Result string: > 400 µM

Query string: Could you tell me which CC50 is on file for "COc1cc(OC)c(OC)cc1/C=C1\CCC/C(=C\c2ccc([N+](=O)[O-])cc2)C1=O" ?
Result string: > 400 µM

Query string: Requested field: CC50. Item: "O=C1/C(=C/c2ccc(F)cc2)CCC/C1=C\c1cccc([N+](=O)[O-])c1"
Result string: 38 µM
